target: Protein translocase subunit SecA (Escherichia coli (strain K12)) (UniProt P10408); assay: Assay to Identify E. coli SecA ATPase Inhibitors; format: functional; set-up: scale not given: direction of the effect not stated beside the values; conditions: 30 µM
Sequence (P10408 whole entry): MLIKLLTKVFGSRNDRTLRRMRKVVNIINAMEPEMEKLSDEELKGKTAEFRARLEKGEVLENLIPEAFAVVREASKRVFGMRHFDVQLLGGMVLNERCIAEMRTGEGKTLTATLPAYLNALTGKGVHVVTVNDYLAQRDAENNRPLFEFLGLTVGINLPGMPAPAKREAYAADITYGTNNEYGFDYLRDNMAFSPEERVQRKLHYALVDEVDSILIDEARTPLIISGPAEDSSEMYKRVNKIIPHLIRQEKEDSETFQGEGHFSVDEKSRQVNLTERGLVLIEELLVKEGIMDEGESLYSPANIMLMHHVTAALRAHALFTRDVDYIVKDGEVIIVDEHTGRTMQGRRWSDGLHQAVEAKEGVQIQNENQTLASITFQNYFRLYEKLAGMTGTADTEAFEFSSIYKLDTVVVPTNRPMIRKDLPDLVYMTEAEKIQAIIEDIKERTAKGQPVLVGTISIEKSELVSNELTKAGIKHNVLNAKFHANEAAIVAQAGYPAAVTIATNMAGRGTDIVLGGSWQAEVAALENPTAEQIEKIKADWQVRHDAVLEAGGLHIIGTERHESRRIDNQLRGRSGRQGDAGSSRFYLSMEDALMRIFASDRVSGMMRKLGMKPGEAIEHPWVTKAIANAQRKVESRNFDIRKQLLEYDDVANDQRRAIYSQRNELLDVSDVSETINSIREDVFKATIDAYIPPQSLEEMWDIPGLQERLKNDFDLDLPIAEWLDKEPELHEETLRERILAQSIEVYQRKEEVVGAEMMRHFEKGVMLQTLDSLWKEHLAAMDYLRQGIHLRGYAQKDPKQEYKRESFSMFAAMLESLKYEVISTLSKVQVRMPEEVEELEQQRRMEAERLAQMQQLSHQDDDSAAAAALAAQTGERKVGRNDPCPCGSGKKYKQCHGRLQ
Potency and affinity values are given separately.
assay metric: Percent Effect (%)
Give just the numeric value; % need not be written.

Worked cases, Percent Effect given:
CC(=O)N1CCC2(CC1)C(=O)N(CC1CC1)c1ccccc12 :: -5.06
COC(=O)C1CCN(C(=O)c2ccc(NS(C)(=O)=O)c(C)c2)CC1 :: -3.21
CN(C)CCN1C(=O)CCC12CCN(C(=O)c1cccnc1)CC2 :: -1.32
O=C(CSc1ccc(F)c(F)c1)NS(=O)(=O)c1ccc2c(c1)OCCO2 :: -1.98

Inquiry: Give me measured Percent Effect, please, for this compound: Cc1cc(C)n(CC(=O)N(C)Cc2csc(-c3cccs3)n2)c(=O)n1
Reply text: 0.251

Inquiry: Give me measured Percent Effect, please, for this compound: CC(O)CN1CCN(C(=O)c2ccc(N(C)C)nn2)CC1 (stereo not drawn)
Reply text: -4.58

Inquiry: Give me measured Percent Effect, please, for this compound: Cn1nc(CNC(=O)c2ccc(Cl)cc2)c2c1CCOC2
Reply text: -1.53

Inquiry: Give me measured Percent Effect, please, for this compound: COc1ccc(C(O)CNC(=O)NCc2csc(C)n2)cc1 (stereo not drawn)
Reply text: -3.31

Inquiry: Give me measured Percent Effect, please, for this compound: N#Cc1c(F)cccc1N1CCN(S(=O)(=O)c2cccs2)CC1
Reply text: -2.74

Inquiry: Give me measured Percent Effect, please, for this compound: COc1cccc(CN(C)Cc2cccc(C#N)c2)c1OC
Reply text: -2.4

Inquiry: Give me measured Percent Effect, please, for this compound: Nc1nc(CCC(=O)N2CCOC(CC3CCCCC3)C2)cs1 (stereo not drawn)
Reply text: -7.43

Inquiry: Give me measured Percent Effect, please, for this compound: OC(CN1CCN(Cc2ccc(F)cc2)CC1)C1CC1 (stereo not drawn)
Reply text: -4.82

Inquiry: Give me measured Percent Effect, please, for this compound: CC(C)Cc1ccc(S(=O)(=O)Nc2ccc(=O)n(C)c2)cc1
Reply text: -3.52

Inquiry: Give me measured Percent Effect, please, for this compound: CCO[C@H]1CO[C@@]2(CCCN(S(=O)(=O)c3ccccc3)C2)C1
Reply text: -1.1

Inquiry: Give me measured Percent Effect, please, for this compound: Cn1ncc2c(N3CCN(C(N)=O)CC3)nc(C3CCCC3)nc21
Reply text: -1.31

Inquiry: Give me measured Percent Effect, please, for this compound: CCn1ncc2c1CCCC2NCC1=Cc2ccccc2OC1 (stereo not drawn)
Reply text: -4.51

Inquiry: Give me measured Percent Effect, please, for this compound: CCc1noc(C(C)N(C)CC(=O)Nc2cccc(C)n2)n1 (stereo not drawn)
Reply text: 0.372

Inquiry: Give me measured Percent Effect, please, for this compound: CCc1nc(C2CCCN2CC(=O)Nc2c(C)n[nH]c2C)no1 (stereo not drawn)
Reply text: 1.31

Inquiry: Give me measured Percent Effect, please, for this compound: O=C(Nc1ccccc1F)N1CCN(Cc2noc(C3CC3)n2)CC1
Reply text: -1.58

Inquiry: Give me measured Percent Effect, please, for this compound: O=C(NCCO)C1(Cc2cc(-c3ccc(F)cc3F)no2)CCOCC1
Reply text: -2.99

Inquiry: Give me measured Percent Effect, please, for this compound: Cc1cccnc1C(=O)N1CCCC(c2[nH]ncc2S(C)(=O)=O)C1 (stereo not drawn)
Reply text: -0.892

Inquiry: Give me measured Percent Effect, please, for this compound: CCN1CCn2nc(CCC(=O)N3CCCC3)cc2C1
Reply text: -6.01

Inquiry: Give me measured Percent Effect, please, for this compound: CCn1nccc1CNC(=O)C1CCCC1
Reply text: 0.221

Inquiry: Give me measured Percent Effect, please, for this compound: Cc1ccc2c(n1)N(Cc1cccnc1)CCN(C(=O)C1CCC1)C2
Reply text: -1.28

Inquiry: Give me measured Percent Effect, please, for this compound: CN1CCOC(CNC(=O)Cc2ccccc2F)C1 (stereo not drawn)
Reply text: -1.65
